Target: T1, human podocalyxin (human, UniProt O00592 23-558)
T1 construct: also called hPodo; hPodocalyxin
T1 sequence: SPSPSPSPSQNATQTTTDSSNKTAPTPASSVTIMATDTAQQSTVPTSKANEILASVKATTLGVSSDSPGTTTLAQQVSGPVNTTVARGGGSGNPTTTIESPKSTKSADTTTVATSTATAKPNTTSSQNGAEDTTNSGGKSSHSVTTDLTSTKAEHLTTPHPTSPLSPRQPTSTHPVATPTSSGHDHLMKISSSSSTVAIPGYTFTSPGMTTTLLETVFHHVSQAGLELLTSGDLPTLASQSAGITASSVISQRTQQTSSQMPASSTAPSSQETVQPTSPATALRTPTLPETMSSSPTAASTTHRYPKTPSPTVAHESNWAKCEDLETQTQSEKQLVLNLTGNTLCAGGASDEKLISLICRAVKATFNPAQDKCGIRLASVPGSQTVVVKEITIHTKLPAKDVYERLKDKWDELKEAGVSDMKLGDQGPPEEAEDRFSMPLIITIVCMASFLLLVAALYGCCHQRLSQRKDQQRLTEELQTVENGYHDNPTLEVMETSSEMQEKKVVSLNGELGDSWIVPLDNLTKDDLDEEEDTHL
Assay: flow cytometry, supernatant 2:15 (so in the source), hPodo/MDA-MB-231 transient transfectants
Experimental: The following antibodies were transiently transfected in 293HEK cells, transfected cells were incubated for 96 hours, antibody containing supernatant was then serially titrated in FACS sample buffer. […] The cells were washed by adding 200 μl FACS buffer to dilute unbound antibody. […] The cell pellets were finally resuspended in 75 μl FACS buffer and read on the HTFC™ Screening System (IntelliCyt Corporation) (3 sec sip, 1.5 up time) and analyzed on the HyperView® software (IntelliCyt Corporation).
measuredEndpoint: flow cytometry fluorescence (name not given)
Write the number on its own, no unit after it.

Example results:
• Rabbit Podo 83 (Parental rabbit antibody) (antibody, V domains shown, Rabbit constant regions; also called Rb Podo 83 (Rb Constant Region); rabbit Podo-83 (Ab-1)) VH: QSLAESGGRLVTPGTPLTLTCTASGIDLSSYAMGWVRQAPGKGLEYIGFIYASGSIFYASWAKGRFTISKTSSTTVDLKMTSLTTEDTATYFCARAGYYFGGNYDLNLWGQGTLVTVSS VL: DIVLTQTPASVEVAVGGTVTIKCQASQSISNYLAWYQRKPGQPPRLLIYRASTLASGVSSRFKGSGSGTQFTLTISGVECADAATYYCQQGYVSNNLDNIFGGGTEVVVK = 89700
• Rb/Hu Podo83 (Podo83 rabbit VH and VL, human IgG1 chimera) (antibody, V domains shown, Rabbit variable domains cloned into human IgG1 and human Ig kappa constant region constructs (pTT5/IgG1, pTT5/Igk); also called anti-PODO; Ab-1) VH: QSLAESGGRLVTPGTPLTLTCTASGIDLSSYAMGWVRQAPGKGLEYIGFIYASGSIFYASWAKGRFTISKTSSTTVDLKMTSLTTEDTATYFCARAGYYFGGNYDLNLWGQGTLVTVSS VL: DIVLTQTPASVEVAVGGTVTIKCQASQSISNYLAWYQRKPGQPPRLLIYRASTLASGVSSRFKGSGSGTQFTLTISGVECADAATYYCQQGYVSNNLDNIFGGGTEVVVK = 155000

We now examine a further binder.
Request: Could you tell me which flow cytometry fluorescence (name not given) is on file for Rb VH, Vk 1:1 (Podo 83 rabbit VH, human CH1-CH3, human Ck, and humanized Vk) (antibody, V domains shown, Human CH1-CH3 and human Ck) VH: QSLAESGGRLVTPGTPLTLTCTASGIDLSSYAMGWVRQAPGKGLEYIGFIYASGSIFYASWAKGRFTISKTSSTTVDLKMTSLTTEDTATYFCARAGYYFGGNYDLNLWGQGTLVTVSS VL: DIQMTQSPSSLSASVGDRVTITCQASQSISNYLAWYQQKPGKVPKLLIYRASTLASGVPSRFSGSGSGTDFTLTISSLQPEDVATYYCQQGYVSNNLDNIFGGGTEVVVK ?
Result: 76400
